molecular target: Cytochrome P450 2C9 (Homo sapiens) (UniProt P11712); experiment: blockers of cytochrome P450 2C9 activity – biochemical, luminescence, ADME assay, primary screen (AID 777); conditions: CYP2C9 Supersomes, luciferin-H conversion, at 5 µM, hits give high values
Sequence (P11712 whole entry, looked up): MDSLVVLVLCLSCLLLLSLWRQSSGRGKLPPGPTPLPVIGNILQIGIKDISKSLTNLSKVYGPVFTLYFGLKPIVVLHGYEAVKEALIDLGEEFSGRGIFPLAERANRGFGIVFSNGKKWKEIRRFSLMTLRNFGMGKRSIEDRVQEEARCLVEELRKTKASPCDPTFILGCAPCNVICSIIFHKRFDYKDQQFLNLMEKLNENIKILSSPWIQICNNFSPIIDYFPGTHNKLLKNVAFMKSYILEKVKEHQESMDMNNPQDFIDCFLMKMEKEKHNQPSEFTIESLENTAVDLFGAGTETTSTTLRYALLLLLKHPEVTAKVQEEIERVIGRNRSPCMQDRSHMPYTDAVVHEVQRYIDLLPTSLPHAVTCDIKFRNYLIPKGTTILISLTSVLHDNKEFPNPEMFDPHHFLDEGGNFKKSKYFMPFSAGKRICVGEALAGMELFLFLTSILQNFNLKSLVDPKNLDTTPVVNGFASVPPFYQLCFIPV
The campaign covered roughly 96,000 compounds. About 19,000 (20%) were called active. These entries were drawn from the full list.
The entries below come with measured inhibition values attached.
Endpoint label: inhibition (%)

[[record]]
compound = "COc1ccc(-c2oc3ncn(Cc4ccco4)c(=N)c3c2-c2ccc(OC)cc2)cc1"
endpoint_label = "inhibition"
measurement_unit = "%"
recorded_number = 27.6

[[record]]
compound = "Cc1cc(O)ccc1-c1cnc2ccccc2n1"
endpoint_label = "inhibition"
measurement_unit = "%"
recorded_number = -7.4

[[record]]
compound = "Cc1nc2ccc(S(=O)(=O)NCC(=O)NCCN3CCCCC3C)cc2s1 (stereo not given)"
endpoint_label = "inhibition"
measurement_unit = "%"
recorded_number = 8.5

[[record]]
compound = "CC(C)Cc1cc(C(=O)Nc2cc(Br)ccc2O)no1"
endpoint_label = "inhibition"
measurement_unit = "%"
recorded_number = 18.1

[[record]]
compound = "Cn1c(=O)cc(OCCCC(=O)N2CCN(c3ccccn3)CC2)c2ccccc21"
endpoint_label = "inhibition"
measurement_unit = "%"
recorded_number = 30.3


====

target: Cytochrome P450 2C9 (Homo sapiens); assay: blockers of cytochrome P450 2C9 activity – biochemical, luminescence, ADME assay, primary screen (AID 777); conditions: CYP2C9 Supersomes, luciferin-H conversion, at 5 µM, hits give high values
About 19,000 (20%) of roughly 96,000 compounds were called active. These entries were drawn from the full list.
The entries below come with measured inhibition values attached.
Endpoint label: inhibition

[[record]]
molecule = "CC(=O)c1cccc(S(=O)(=O)N2CCC(n3nnc4cc(F)ccc43)CC2)c1"
endpoint_label = "inhibition"
result = "-31% (inactive)"

[[record]]
molecule = "COc1ccc(OCC(=O)OCCN(C)C)cc1"
endpoint_label = "inhibition"
result = "-12.1% (inactive)"

[[record]]
molecule = "CC1CCCCN1S(=O)(=O)c1ccc(C(=O)Nc2nnc(-c3cccs3)o2)cc1 (configuration not stated)"
endpoint_label = "inhibition"
result = "7.8% (inactive)"

[[record]]
molecule = "CC(=O)c1c(N2CCOCC2)nc(=S)n(Cc2ccccc2)c1C"
endpoint_label = "inhibition"
result = "12.5% (inactive)"

[[record]]
molecule = "CCCOC(=O)CC1C(=O)NCCN1Cc1ccc(F)cc1 (configuration not stated)"
endpoint_label = "inhibition"
result = "6.4% (inactive)"

[[record]]
molecule = "c1ccc(CC2CCN(c3nc4ccccc4n4cnnc34)CC2)cc1"
endpoint_label = "inhibition"
result = "20.5% (inactive)"

[[record]]
molecule = "COc1ccccc1-c1n[nH]c2c1[C@H](C)CC[C@H]2C(C)C"
endpoint_label = "inhibition"
result = "36.5% (inactive)"


====

The entries below come with measured inhibition values attached.
target: Cytochrome P450 2C9 (Homo sapiens) (UniProt P11712); assay: blockers of cytochrome P450 2C9 activity – biochemical, luminescence, ADME assay, primary screen (AID 777); settings: CYP2C9 Supersomes, luciferin-H conversion, at 5 µM, hits give high values
About 19,000 (20%) of roughly 96,000 compounds were called active. Only a sample is shown.
Endpoint label: inhibition (%)

[[record]]
compound = "O=C(c1cc(-c2cccc(O)c2)on1)N1CCc2ccccc2C1"
measurement_unit = "%"
recorded_number = 55.8

[[record]]
compound = "O=C(c1cc(-c2ccc(O)cc2)on1)N1CCCc2ccccc21"
measurement_unit = "%"
recorded_number = 55.3

[[record]]
compound = "O=C(O)c1cccnc1NC1CCCC1"
measurement_unit = "%"
recorded_number = 4.1

[[record]]
compound = "COc1cc(/C=N\\NC(=O)C2C(=O)NCC2c2ccccc2)cc(OC)c1O (stereo not drawn)"
measurement_unit = "%"
recorded_number = -9.3

[[record]]
compound = "O=C(N/N=C/c1ccsc1)c1cc(O)cc(O)c1"
measurement_unit = "%"
recorded_number = 5.4

[[record]]
compound = "Cc1ccc(-c2nc(COC(=O)c3c(C)noc3C)cs2)cc1"
measurement_unit = "%"
recorded_number = 28

[[record]]
compound = "O=C(COC(=O)c1ccccc1NC(=O)c1ccco1)Nc1ccc2c(c1)OC(F)(F)O2"
measurement_unit = "%"
recorded_number = 76.1

[[record]]
compound = "O=C(c1cc(-c2ccccc2O)on1)N1CCCC1"
measurement_unit = "%"
recorded_number = -51.3

[[record]]
compound = "CC(Oc1ccc(Cl)cc1)c1ccnn1S(C)(=O)=O (stereo not drawn)"
measurement_unit = "%"
recorded_number = 24.4

[[record]]
compound = "Cc1occc1C(=O)N1CCCc2ccccc21"
measurement_unit = "%"
recorded_number = -1.8

[[record]]
compound = "Cc1noc(C)c1C(=O)OCC(=O)/C=C1\\N(C)c2ccccc2C1(C)C"
measurement_unit = "%"
recorded_number = 55.7

[[record]]
compound = "CSCCC(NC(=O)c1ccco1)C(=O)OCC(=O)Nc1ncc(Cl)c(C)c1Cl (stereo not drawn)"
measurement_unit = "%"
recorded_number = 24.2

[[record]]
compound = "CC(=O)c1cccc(NC(=O)Nc2ccc(C)cc2)c1"
measurement_unit = "%"
recorded_number = 17.7


====

biological target: Cytochrome P450 2C9 (Homo sapiens); test: blockers of cytochrome P450 2C9 activity – biochemical, luminescence, ADME assay, primary screen (AID 777); conditions: CYP2C9 Supersomes, luciferin-H conversion, at 5 µM, hits give high values
In all, about 96,000 compounds went through this assay and about 19,000 (20%) were called active. The list is a sample of the results.
Endpoint label: inhibition (%)

[[record]]
molecule = "O=C(NCCN1CCOCC1)[C@H](Cc1ccccc1)N1C(=O)c2ccccc2C1=O"
recorded_number = -32.6

[[record]]
molecule = "C=CCNC(=O)c1cc2nc(C3CC3)cc(C(F)F)n2n1"
recorded_number = 40

[[record]]
molecule = "Oc1c(C=Nc2cccc3nsnc23)ccc2ccccc12"
recorded_number = -15.3

[[record]]
molecule = "Cc1cc(C)nc(NC(=O)C(C)N2C(=O)c3ccccc3C2=O)n1 (stereo not drawn)"
recorded_number = -15.6

[[record]]
molecule = "Cc1cc(OCCOc2cccc3cccnc23)c(C)cc1Cl"
recorded_number = -170

[[record]]
molecule = "Cn1c(=O)c2[nH]c(NCC3CCCO3)nc2n(-c2ccccc2)c1=O (stereo not drawn)"
recorded_number = 10.1

[[record]]
molecule = "Cc1cccc(OCCCC(=O)Nc2ccc(S(=O)(=O)N3CCCC3)cc2)c1"
recorded_number = 65.2

[[record]]
molecule = "COC(=O)c1ccccc1NC(=O)C1CCN(S(=O)(=O)c2cc(OC)ccc2OC)CC1"
recorded_number = 92.2

[[record]]
molecule = "CC(=O)N1CCN(C(=O)c2cccc(S(=O)(=O)Nc3ccc(C)cc3)c2)CC1"
recorded_number = 0.3

[[record]]
molecule = "Cc1ccc(CNC(=O)COc2ccc(S(=O)(=O)NC(C)C)cc2)cc1"
recorded_number = 52.7

[[record]]
molecule = "Cc1cc(C)c(C#N)c(SCc2[nH]nc3c2C(c2ccccc2)C(C#N)=C(N)O3)n1 (stereo not drawn)"
recorded_number = 18.4

[[record]]
molecule = "CCOc1cccc(NC(=O)C2CCCN(S(=O)(=O)c3ccc(OC)cc3)C2)c1 (stereo not drawn)"
recorded_number = 21.3

[[record]]
molecule = "Cc1nc2ccccc2c2oc(C(=O)NCC3CCCO3)cc12 (stereo not drawn)"
recorded_number = 0.9

[[record]]
molecule = "Cc1nn(C(C)CC(=O)O)c(C)c1C (stereo not drawn)"
recorded_number = -4.1

[[record]]
molecule = "COC(=O)CNC(=O)c1ccccc1F"
recorded_number = -2.7

[[record]]
molecule = "CC(=O)Nc1ccc(S(=O)(=O)N2CCSCC2)cc1"
recorded_number = 14

[[record]]
molecule = "Cn1c(=O)[nH]c(=O)c2c1nc(Br)n2CCCCSc1nc2ccccc2o1"
recorded_number = 67.6

[[record]]
molecule = "CC(=O)NS(=O)(=O)c1ccc(NC(=O)/C=C/c2ccccc2Cl)cc1"
recorded_number = 12.7

[[record]]
molecule = "O=C(NCCCCCCCCCNC(=O)C(F)(F)F)C(F)(F)F"
recorded_number = 11.2

[[record]]
molecule = "O=C(CN1CCN(S(=O)(=O)c2ccc3ccccc3c2)CC1)NC(=O)NC1CCCCC1"
recorded_number = -18.3

[[record]]
molecule = "COc1ccc(Nc2cc(=O)oc3ccccc23)cc1"
recorded_number = -27.6

[[record]]
molecule = "CC(=O)c1c(C)c[nH]c1C"
recorded_number = -23.3

[[record]]
molecule = "CCc1c(C)nc2cc(-c3cccs3)[nH]n2c1=O"
recorded_number = 30.3

[[record]]
molecule = "O=C1Cc2ccccc2Sc2ccc(Cl)cc21"
recorded_number = 4

[[record]]
molecule = "Nc1c(-c2cccc(Cl)c2)cnn1-c1cccc([N+](=O)[O-])c1"
recorded_number = 4.4

[[record]]
molecule = "CSCCC(NC(N)=O)C(=O)N(C)CC(=O)Nc1ccc(C)cc1 (stereo not drawn)"
recorded_number = -21.5

[[record]]
molecule = "N/C(=N\\c1nc2ccccc2o1)NC(=O)C(Cc1ccccc1)N1C(=O)c2ccccc2C1=O (stereo not drawn)"
recorded_number = 89.2

[[record]]
molecule = "O=C(NCCCCc1ccccc1)C1CC(c2ccc([N+](=O)[O-])cc2)=NO1 (stereo not drawn)"
recorded_number = 14.2

